Experiment: S6 kinase pathway phospho-S6 level changes – cell-based, A549, cytoblot, luminescence, serum-stimulated, primary screen (AID 1158);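 further: serum-stimulated A549 lung adenocarcinoma cells; signal is phosphorylated S6 detected by cytoblot immunostaining with HRP secondary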
Settings: 5 h, higher = more signal
Measure: z-score
Respond using a number only.

Worked set:
{"columns": ["Smiles Structure", "z-score"],
 "data": [
  ["CC(=CC1CCCCC1)[C@@H](NC(=O)c1cccnc1)c1ccc(-c2ccccc2)cc1", -0.849],
  ["CO[C@H]1O[C@H](CO)[C@@H](OC(=O)Nc2ccc(Oc3ccccc3)cc2)[C@H](OC(=O)Nc2ccc3c(c2)OCO3)[C@@H]1OC(=O)Nc1ccc2c(c1)OCO2", 0.377],
  ["COCCCNC(=O)[C@@]1(CCS(=O)(=O)c2ccccc2)N=C(c2ccc(OCCCO)cc2)O[C@H]1c1ccccc1N=[N+]=[N-]", 1.62]
]}

Let us move to another entry and its z-score.
Ask: // fetch z-score given entry O[C@@H](Cc1ccccc1)[C@@H](/C=C/C1CC1)NCc1cccc(Cl)c1
Reply: 0.528
